Target: Tyrosine-protein kinase ABL1 (Homo sapiens, UniProt P00519)
Sequence (P00519 whole entry): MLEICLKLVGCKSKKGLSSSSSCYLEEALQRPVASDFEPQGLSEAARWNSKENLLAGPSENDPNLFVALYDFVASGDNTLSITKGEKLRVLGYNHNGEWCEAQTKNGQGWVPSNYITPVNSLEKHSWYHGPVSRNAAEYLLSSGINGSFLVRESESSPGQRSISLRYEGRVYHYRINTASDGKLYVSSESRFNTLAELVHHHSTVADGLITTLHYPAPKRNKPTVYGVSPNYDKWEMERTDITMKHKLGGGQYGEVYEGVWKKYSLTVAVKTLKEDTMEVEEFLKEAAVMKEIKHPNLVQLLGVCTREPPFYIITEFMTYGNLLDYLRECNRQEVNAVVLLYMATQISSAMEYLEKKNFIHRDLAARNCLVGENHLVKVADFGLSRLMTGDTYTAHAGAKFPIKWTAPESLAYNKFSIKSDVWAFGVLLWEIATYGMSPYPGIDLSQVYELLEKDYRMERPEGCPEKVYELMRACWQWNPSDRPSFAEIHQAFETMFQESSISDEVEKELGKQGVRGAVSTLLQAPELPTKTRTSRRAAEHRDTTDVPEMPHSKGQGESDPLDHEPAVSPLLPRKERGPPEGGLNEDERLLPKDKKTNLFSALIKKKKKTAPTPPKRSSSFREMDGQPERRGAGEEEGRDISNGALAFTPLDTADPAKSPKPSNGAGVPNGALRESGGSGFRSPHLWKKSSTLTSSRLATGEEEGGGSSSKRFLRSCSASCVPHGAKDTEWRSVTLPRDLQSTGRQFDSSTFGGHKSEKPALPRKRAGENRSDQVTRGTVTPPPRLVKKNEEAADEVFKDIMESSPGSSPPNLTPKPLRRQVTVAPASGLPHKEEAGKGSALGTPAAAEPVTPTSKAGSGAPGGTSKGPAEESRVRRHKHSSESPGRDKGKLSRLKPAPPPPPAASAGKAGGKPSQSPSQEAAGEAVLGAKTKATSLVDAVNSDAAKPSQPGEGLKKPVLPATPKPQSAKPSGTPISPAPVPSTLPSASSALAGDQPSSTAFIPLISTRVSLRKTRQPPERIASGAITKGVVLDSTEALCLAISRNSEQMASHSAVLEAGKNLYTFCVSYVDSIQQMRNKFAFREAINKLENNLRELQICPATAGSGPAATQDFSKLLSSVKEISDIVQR
Assay: Inhibition of full length ABL1 (unknown origin) expressed in HEK293T cells using NanoBRET NanoGlo substrate incubated for 2 hrs in presence of K4 tracer by NanoBRET assay
value.kind: pEC50
As a rule, pEC50 stands for the negative log10 of the concentration, concentration in M.

Recorded pEC50 for O=C(Nc1ccccc1Cl)c1cnc2ccc(C3CCNCC3)cn12 , please? 4.31

* * *

The listing below reports deltaTm for compounds tested on Ephrin type-A receptor 5 (Homo sapiens) (UniProt P54756).
Sequence (P54756 whole entry): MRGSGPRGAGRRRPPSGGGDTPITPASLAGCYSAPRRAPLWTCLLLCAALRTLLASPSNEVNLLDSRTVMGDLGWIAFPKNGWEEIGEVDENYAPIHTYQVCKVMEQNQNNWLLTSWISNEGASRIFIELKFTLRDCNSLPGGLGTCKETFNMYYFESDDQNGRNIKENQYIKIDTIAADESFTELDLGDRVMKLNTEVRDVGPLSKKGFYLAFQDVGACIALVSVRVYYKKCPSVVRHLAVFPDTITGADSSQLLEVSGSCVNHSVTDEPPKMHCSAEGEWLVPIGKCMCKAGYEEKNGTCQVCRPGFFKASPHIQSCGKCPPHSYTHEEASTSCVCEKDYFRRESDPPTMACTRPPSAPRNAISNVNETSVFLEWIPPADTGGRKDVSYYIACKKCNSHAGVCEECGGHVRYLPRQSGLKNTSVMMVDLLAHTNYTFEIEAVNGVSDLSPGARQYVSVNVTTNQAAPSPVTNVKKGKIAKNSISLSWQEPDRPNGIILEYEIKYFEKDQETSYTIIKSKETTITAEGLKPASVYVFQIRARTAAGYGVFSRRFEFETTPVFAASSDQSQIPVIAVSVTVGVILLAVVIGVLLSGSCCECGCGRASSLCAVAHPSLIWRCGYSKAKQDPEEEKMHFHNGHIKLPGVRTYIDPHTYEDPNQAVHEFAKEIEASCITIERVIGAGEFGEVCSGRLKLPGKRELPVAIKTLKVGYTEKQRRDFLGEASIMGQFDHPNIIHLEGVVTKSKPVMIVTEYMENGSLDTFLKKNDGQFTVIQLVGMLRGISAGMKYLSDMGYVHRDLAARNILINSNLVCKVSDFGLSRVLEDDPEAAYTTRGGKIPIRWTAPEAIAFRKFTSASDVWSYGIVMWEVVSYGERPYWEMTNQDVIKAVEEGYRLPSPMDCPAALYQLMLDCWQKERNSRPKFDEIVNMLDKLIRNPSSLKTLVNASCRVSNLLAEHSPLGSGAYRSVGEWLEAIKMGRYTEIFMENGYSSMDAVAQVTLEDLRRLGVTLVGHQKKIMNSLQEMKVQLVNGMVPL
Provide the reading as a plain figure in K.

{"smiles": "COc1cc(-c2cnc3nc2NCCCNS(=O)(=O)c2cc(ccc2OCCN2CCOCC2)N3)ccc1F", "unit.abbrev": "K", "deltaTm": 4.6}
{"smiles": "COc1c(F)ccc(-c2cnc3nc2NCCCNS(=O)(=O)c2cccc(c2)N3)c1F", "unit.abbrev": "K", "deltaTm": 5.4}
{"smiles": "COc1cc(-c2cnc3nc2NCCCNS(=O)(=O)c2cccc(c2)N3)cc(F)c1F", "unit.abbrev": "K", "deltaTm": 1.9}
{"smiles": "COC(=O)c1ccc(-c2cnc3nc2NCCCNS(=O)(=O)c2cccc(c2)N3)cc1OC", "unit.abbrev": "K", "deltaTm": 1.8}
{"smiles": "CC(C)Oc1cc(-c2cnc3nc2NCCCNS(=O)(=O)c2cccc(c2)N3)ccc1F", "unit.abbrev": "K", "deltaTm": 0.2}
{"smiles": "O=S1(=O)NCCCNc2nc(ncc2-c2cc(Cl)c(F)cc2F)Nc2cccc1c2", "unit.abbrev": "K", "deltaTm": 5.7}
{"smiles": "COc1cc(-c2cnc3nc2NCCCNS(=O)(=O)c2cc(ccc2OCC(N)=O)N3)ccc1F", "unit.abbrev": "K", "deltaTm": 3.9}
{"smiles": "O=S1(=O)NCCCNc2nc(ncc2-c2cccc(Cl)c2F)Nc2cccc1c2", "unit.abbrev": "K", "deltaTm": 4.6}
{"smiles": "Nc1cc(-c2cnc3nc2NCCCNS(=O)(=O)c2cccc(c2)N3)ccc1F", "unit.abbrev": "K", "deltaTm": 4.6}

Next compound, please.
Recorded deltaTm for CSc1cc(-c2cnc3nc2NCCCNS(=O)(=O)c2cccc(c2)N3)ccc1F , please? 4.3

* * *

Biological target: Fibroblast growth factor receptor 2 (Homo sapiens) (UniProt P21802)
Sequence (P21802 22-821 limits assumed): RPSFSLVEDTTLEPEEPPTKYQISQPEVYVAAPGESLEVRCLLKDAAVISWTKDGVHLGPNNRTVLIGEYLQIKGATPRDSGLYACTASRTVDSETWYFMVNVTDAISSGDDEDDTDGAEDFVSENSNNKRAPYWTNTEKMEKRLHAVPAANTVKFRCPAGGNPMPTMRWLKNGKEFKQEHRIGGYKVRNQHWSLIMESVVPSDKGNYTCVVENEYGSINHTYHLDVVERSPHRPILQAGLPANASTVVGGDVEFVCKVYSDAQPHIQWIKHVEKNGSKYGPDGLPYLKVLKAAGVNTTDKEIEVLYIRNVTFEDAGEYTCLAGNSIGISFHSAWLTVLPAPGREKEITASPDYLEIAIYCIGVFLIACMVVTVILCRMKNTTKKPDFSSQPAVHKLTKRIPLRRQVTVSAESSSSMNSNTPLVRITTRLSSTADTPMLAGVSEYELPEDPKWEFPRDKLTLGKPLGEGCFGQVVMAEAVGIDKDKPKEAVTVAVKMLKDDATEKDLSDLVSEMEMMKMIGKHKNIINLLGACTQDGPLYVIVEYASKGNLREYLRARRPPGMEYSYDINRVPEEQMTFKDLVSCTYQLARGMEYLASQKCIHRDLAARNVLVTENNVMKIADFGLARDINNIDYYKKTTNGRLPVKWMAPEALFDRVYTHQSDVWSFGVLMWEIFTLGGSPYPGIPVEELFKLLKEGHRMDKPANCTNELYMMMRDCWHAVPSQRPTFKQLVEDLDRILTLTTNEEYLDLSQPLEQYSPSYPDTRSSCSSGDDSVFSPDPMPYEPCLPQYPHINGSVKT
value.kind: deltaTm (K)
Provide the reading as a plain figure in K.

// known answers, use as guide
{"smiles": "COc1cc(-c2cnc3nc2NCCCNS(=O)(=O)c2cccc(c2)N3)cc(C(F)(F)F)c1", "deltaTm, K": 5.8}
{"smiles": "COc1cc(-c2cnc3nc2NCCCNS(=O)(=O)c2cccc(c2)N3)c(F)cc1F", "deltaTm, K": 3.6}
{"smiles": "COc1ccc(-c2cnc3nc2NCCCNS(=O)(=O)c2cccc(c2)N3)cc1OC", "deltaTm, K": 3.3}
{"smiles": "COc1cc(-c2cnc3nc2NCCCNS(=O)(=O)c2cccc(c2)N3)cc(F)c1F", "deltaTm, K": 2.9}

Next molecule, please.
Under Fibroblast growth factor receptor 2 (Homo sapiens) (UniProt P21802): deltaTm value of COc1cc(-c2cnc3nc2NCCCNS(=O)(=O)c2cccc(c2)N3)ccc1Cl ? 3.8

* * *

Target: Vascular endothelial growth factor receptor 1 (Homo sapiens)
Sequence (P17948 whole entry): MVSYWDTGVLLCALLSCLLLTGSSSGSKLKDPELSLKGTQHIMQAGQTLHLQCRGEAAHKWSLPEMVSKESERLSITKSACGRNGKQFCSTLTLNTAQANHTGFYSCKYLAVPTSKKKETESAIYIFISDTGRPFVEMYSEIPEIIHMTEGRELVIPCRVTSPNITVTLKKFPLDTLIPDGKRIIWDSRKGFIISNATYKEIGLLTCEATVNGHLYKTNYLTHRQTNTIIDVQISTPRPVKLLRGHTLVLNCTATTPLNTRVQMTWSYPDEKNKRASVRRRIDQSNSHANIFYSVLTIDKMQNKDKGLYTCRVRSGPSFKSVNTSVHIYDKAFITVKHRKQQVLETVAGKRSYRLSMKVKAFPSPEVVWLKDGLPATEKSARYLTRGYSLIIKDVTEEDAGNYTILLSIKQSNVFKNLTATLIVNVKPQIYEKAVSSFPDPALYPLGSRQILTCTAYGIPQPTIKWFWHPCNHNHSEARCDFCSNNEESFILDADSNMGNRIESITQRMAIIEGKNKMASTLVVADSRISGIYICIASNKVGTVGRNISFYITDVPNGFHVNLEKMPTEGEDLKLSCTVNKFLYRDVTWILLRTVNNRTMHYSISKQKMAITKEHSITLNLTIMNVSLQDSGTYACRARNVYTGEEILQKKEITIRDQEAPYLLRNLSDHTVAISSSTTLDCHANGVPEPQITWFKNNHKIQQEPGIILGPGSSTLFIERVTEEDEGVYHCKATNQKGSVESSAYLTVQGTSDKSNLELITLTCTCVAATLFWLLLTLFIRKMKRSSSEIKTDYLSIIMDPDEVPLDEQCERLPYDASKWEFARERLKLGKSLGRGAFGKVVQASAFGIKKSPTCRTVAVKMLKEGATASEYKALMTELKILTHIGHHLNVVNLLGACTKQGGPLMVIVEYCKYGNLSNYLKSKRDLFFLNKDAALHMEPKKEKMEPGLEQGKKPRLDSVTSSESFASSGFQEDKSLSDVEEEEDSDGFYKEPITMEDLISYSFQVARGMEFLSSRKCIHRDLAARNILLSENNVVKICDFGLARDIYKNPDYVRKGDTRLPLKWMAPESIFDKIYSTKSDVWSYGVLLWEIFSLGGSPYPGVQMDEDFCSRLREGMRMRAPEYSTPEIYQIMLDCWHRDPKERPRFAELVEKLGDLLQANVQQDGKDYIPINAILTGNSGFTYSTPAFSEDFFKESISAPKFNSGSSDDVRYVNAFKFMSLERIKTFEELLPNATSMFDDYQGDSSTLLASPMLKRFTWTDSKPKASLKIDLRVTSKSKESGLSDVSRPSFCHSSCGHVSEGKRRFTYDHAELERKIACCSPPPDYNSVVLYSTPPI
Test: Induction of stabilization of recombinant FLT1 (unknown origin) assessed as change in melting temperature by differential scanning fluorimetry assay
value.kind: deltaTm (K)
Provide the reading as a plain figure in K.

Recorded deltaTm for COc1c(F)ccc(-c2cnc3nc2NCCCNS(=O)(=O)c2cccc(c2)N3)c1F , please? 8.8

Recorded deltaTm for COc1cc(-c2cnc3nc2NCCCNS(=O)(=O)c2cccc(c2)N3)ccc1Cl , please? 5.2

Recorded deltaTm for COc1cc(-c2cnc3nc2NCCCNS(=O)(=O)c2cc(ccc2-c2ccc(O)cc2)N3)ccc1F , please? 3.6

Recorded deltaTm for COc1cc(-c2cnc3nc2NCCCNS(=O)(=O)c2cccc(c2)N3)ccc1F , please? 6.3

Recorded deltaTm for COC(=O)c1ccc(-c2cnc3nc2NCCCNS(=O)(=O)c2cccc(c2)N3)cc1OC , please? 2.6

Recorded deltaTm for Nc1cc(-c2cnc3nc2NCCCNS(=O)(=O)c2cccc(c2)N3)ccc1F , please? 4.9
